TARGET_OR_TEST_SYSTEM: Glucose transporter (Leishmania mexicana)
TEST_DETAILS: ST_JUDE_LEISH: Cytotoxicity at 2uM final concentration against transgenic Leishmania Mexicana promastigotes LmGT2 that are glucose transport deficient and complemented with the L. Mexicana glucose transporter 2. Activity is measured by DNA content using SYBR green in vitro
Format: functional
PROPERTY: inhibition (%)
Field: numeric (%). Do not append units.

Record excerpt, results attached:
Q) Suppose we examine the molecule CN(C)CCN(C)Cc1ccc(-c2ccc(NC(=O)c3cccc(Cl)c3)cc2)cc1 ; what inhibition value has been reported?
A) 6.55

Q) Suppose we examine the molecule COc1ccc(CN2CCCC(OC(c3ccc(F)cc3)c3ccc(F)cc3)C2)c(O)c1 (centres undefined) ; what inhibition value has been reported?
A) 9.65

Q) Suppose we examine the molecule CC1(C)CCCN(c2ncc(-c3cccc(CNCc4ccccc4O)c3)cn2)C1 ; what inhibition value has been reported?
A) 3.18

Q) Suppose we examine the molecule COc1cc(Cc2cnc(N)nc2N)cc(OCCn2ccccc2=O)c1OC ; what inhibition value has been reported?
A) 1.46

Q) Suppose we examine the molecule Cc1cc(N2CCCC2)nc(Nc2ccc(NC(=O)C(C)C)cc2)n1 ; what inhibition value has been reported?
A) -6.48

---
Q) Suppose we examine the molecule CCc1nc2c(cnn2CC)c(NC2CCOCC2)c1CNC(=O)N1CCOCC1 ; what inhibition value has been reported?
A) -0.36

Q) Suppose we examine the molecule C=CCOc1ccc(CNC2CCN(Cc3ccccc3)CC2)cc1Br ; what inhibition value has been reported?
A) 0.3

Q) Suppose we examine the molecule CCN(CC)CCN(Cc1ccc(-c2ccc(C(F)(F)F)cc2)cc1)C(=O)c1c[nH]c2ccc(Br)cc12 ; what inhibition value has been reported?
A) 2.1

Q) Suppose we examine the molecule O=C(CCC1CCCCC1)NCCNc1cccc2ccccc12 ; what inhibition value has been reported?
A) -3.97
